# key: entry, value: IC50
Species on record: Cavia porcellus
Assay: Inhibition of spontaneous tone in guinea pig tracheal spirals
Assay type: functional, Trachea

molecule	sign qualifier	IC50 / µM
CC(C)(C)/N=C(\S)C1c2cc(C#N)ccc2OC(C)(C)C1O (stereo in doubt; 11b)	=	11.1
C/N=C(\S)C1c2cc(C#N)ccc2OC(C)(C)C1O (trans isomer)	=	5.6
CC1(C)Oc2ccc(C#N)cc2C(/C(S)=N/c2ccccc2)C1O (cis isomer)	>	20
CC1(C)Oc2ccc(C#N)cc2C(/C(S)=N/c2ccccc2)C1O (trans isomer)	=	3.4

###

Species: Cavia porcellus
Experiment: Inhibition of spontaneous tone in guinea pig tracheal spirals
Format: functional, Trachea
Conditions: Cavia porcellus, Trachea
parameter measured: IC50 (µM)

compound	sign qualifier	result value
CC1(C)Oc2ccc(C#N)cc2C(C)(C(=O)Nc2ccccc2)C1=O (stereo not drawn)	>	20
CC(C)(C)/N=C(\S)C1=C(O)C(C)(C)Oc2ccc(C#N)cc21	=	4.35
C/N=C(\S)C1c2cc(C#N)ccc2OC(C)(C)C1O (cis isomer)	=	5.92
